Measurement description: physchem
Run conditions: oil or lipid, Solubility in capric/caprylic triglycerides (MCT oil), pure MCT oil, RT
Reported property: solubility (µg/mL)
Answers are plain numbers, in µg/mL.

Value of solubility reported for the compound O=C1Nc2ccc(Cl)cc2C(c2ccccc2Cl)=NC1O (stereo not shown) [Lorazepam] is 4300

###

Measurement description: physchem
Run conditions: oil or lipid, Lorazepam solubility in MCT with 8% Menthol, MCT oil + 8% Menthol
Reported property: solubility (µg/mL)
Numbers only, in µg/mL.

Value of solubility reported for the compound O=C1Nc2ccc(Cl)cc2C(c2ccccc2Cl)=NC1O (stereo not shown) [Lorazepam] is 6800

Data provenance: patent US20160000702A1
